- Test System: Human serum albumin (HSA) (Homo sapiens)
- Construct: purchased Daicel, Tokyo, Japan H13H-2433
- Sequence (P02768 25-609): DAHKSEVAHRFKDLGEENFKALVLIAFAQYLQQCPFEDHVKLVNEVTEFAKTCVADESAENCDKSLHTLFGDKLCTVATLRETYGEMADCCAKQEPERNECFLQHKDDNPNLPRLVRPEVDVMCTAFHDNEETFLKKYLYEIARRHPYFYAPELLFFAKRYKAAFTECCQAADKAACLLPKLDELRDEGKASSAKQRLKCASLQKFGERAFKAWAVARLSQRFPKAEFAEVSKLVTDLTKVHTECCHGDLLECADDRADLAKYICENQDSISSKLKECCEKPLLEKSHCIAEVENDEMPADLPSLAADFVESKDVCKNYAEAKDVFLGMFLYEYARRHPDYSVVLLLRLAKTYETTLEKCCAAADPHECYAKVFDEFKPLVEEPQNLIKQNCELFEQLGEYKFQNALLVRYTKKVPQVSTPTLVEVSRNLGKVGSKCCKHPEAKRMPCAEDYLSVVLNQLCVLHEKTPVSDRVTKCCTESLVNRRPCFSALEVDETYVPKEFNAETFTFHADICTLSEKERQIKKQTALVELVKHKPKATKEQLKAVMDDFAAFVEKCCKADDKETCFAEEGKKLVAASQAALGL
- Test Summary: Determination of HSA binding on a Chiralpak HSA column
- Type: in vitro ADME
- Assay Context: Tab. 8; metal not stated (Fig. 18: ^natLu)
Starred links: 1 amine or outer side, 2 acyl side, 3 side chain; linkers in the order of their positions; H or OH if unused. Non-standard residues stand in square brackets, D forms with d. Residues, ends and D or L forms follow the SMILES beside them. *: point of attachment. Benzoyl(4-SiFtBu2) = CC(C)(C)[Si](F)(c1ccc(C(=O)*)cc1)C(C)(C)C; X1 = CC(C)(C)[Si](F)(c1ccc(C[N+](C)(C)CC(=O)*)cc1)C(C)(C)C; DOTA = O=C(O)CN1CCN(CC(=O)O)CCN(CC(=O)*)CCN(CC(=O)O)CC1; PEG12 = NCCOCCOCCOCCOCCOCCOCCOCCOCCOCCOCCOCCOCCC(=O)O; d(γGlu) = O=C(O)[C@@H](CCC(=O)[*:2])N[*:1]; PEG8 = NCCOCCOCCOCCOCCOCCOCCOCCOCCC(=O)O; 1Nal = N[C@@H](Cc1cccc2ccccc12)C(=O)O; PEG5 = NCCOCCOCCOCCOCCOCCC(=O)O; NMeNle = CCCC[C@H](NC)C(=O)O; PEG4 = NCCOCCOCCOCCOCCC(=O)O; dDap = NC[C@@H](N)C(=O)O

{"Compound": "CCCC[C@@H](C(=O)N[C@@H](CC(=O)O)C(=O)N[C@@H](Cc1cccc2ccccc12)C(N)=O)N(C)C(=O)[C@H](Cc1c[nH]c2ccccc12)NC(=O)CCOCCOCCOCCOCCNC(=O)CC[C@@H](NC(=O)CCOCCOCCOCCOCCOCCOCCOCCOCCOCCOCCOCCOCCNC(=O)[C@@H](CNC(=O)c1ccc([Si](F)(C(C)(C)C)C(C)(C)C)cc1)NC(=O)CN1CCN(CC(=O)O)CCN(CC(=O)O)CCN(CC(=O)O)CC1)C(=O)O [DOTA-rhCCK-74] ({DOTA}-[dDap](Benzoyl(4-SiFtBu2))[PEG12][d(γGlu)][PEG4]W[NMeNle]D[1Nal]-NH2)", "Test System": "Human serum albumin (HSA) (Homo sapiens)", "Scale Unit": "%", "HSA binding [%]": 87.2}
{"Compound": "CCCC[C@@H](C(=O)N[C@@H](CC(=O)O)C(=O)N[C@@H](Cc1cccc2ccccc12)C(N)=O)N(C)C(=O)[C@H](Cc1c[nH]c2ccccc12)NC(=O)CCOCCOCCOCCOCCNC(=O)CC[C@@H](NC(=O)CCOCCOCCOCCOCCOCCOCCOCCOCCNC(=O)[C@@H](CNC(=O)c1ccc([Si](F)(C(C)(C)C)C(C)(C)C)cc1)NC(=O)CN1CCN(CC(=O)O)CCN(CC(=O)O)CCN(CC(=O)O)CC1)C(=O)O [DOTA-rhCCK-73] ({DOTA}-[dDap](Benzoyl(4-SiFtBu2))[PEG8][d(γGlu)][PEG4]W[NMeNle]D[1Nal]-NH2)", "Test System": "Human serum albumin (HSA) (Homo sapiens)", "Scale Unit": "%", "HSA binding [%]": 90.4}
{"Compound": "CCCC[C@@H](C(=O)N[C@@H](CC(=O)O)C(=O)N[C@@H](Cc1cccc2ccccc12)C(N)=O)N(C)C(=O)[C@H](Cc1c[nH]c2ccccc12)NC(=O)CCOCCOCCOCCOCCNC(=O)CC[C@@H](NC(=O)CCOCCOCCOCCOCCOCCNC(=O)[C@@H](CNC(=O)c1ccc([Si](F)(C(C)(C)C)C(C)(C)C)cc1)NC(=O)CN1CCN(CC(=O)O)CCN(CC(=O)O)CCN(CC(=O)O)CC1)C(=O)O [DOTA-rhCCK-67] ({DOTA}-[dDap](Benzoyl(4-SiFtBu2))[PEG5][d(γGlu)][PEG4]W[NMeNle]D[1Nal]-NH2)", "Test System": "Human serum albumin (HSA) (Homo sapiens)", "Scale Unit": "%", "HSA binding [%]": 92.9}
{"Compound": "CCCC[C@@H](C(=O)N[C@@H](CC(=O)O)C(=O)N[C@@H](Cc1cccc2ccccc12)C(N)=O)N(C)C(=O)[C@H](Cc1c[nH]c2ccccc12)NC(=O)CCOCCOCCOCCOCCNC(=O)CC[C@@H](NC(=O)CCOCCOCCOCCOCCOCCNC(=O)[C@@H](CNC(=O)C[N+](C)(C)Cc1ccc([Si](F)(C(C)(C)C)C(C)(C)C)cc1)NC(=O)CN1CCN(CC(=O)O)CCN(CC(=O)O)CCN(CC(=O)O)CC1)C(=O)O [DOTA-rhCCK-90] ({DOTA}-[dDap](X1)[PEG5][d(γGlu)][PEG4]W[NMeNle]D[1Nal]-NH2)", "Test System": "Human serum albumin (HSA) (Homo sapiens)", "Scale Unit": "%", "HSA binding [%]": 94.5}

Where these numbers come from: patent EP4631959A2
